Known pIC50 of a selection of compounds
Molecular target: hOGG1 (Homo sapiens)
Sequence (O15527 12-323): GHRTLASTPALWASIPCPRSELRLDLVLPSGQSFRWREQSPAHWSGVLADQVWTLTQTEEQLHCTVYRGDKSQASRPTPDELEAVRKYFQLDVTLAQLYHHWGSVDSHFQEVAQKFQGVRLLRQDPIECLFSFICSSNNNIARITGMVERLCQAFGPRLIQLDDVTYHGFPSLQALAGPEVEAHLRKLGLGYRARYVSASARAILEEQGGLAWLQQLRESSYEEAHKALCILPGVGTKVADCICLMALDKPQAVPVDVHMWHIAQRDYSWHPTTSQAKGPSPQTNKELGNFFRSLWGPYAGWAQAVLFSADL
Test: Biochemical fluorescence assay to measure enzymatic activity of hOGG1 (OGG1/APEX IC50)
Design: Protein His-hOGG1 (12-323) was prepared; His (N); host or cells: E. coli
Conditions: 1 nM OGG1+2 nM APEX+6 nM dsDNA (8-oxo-dG substrate); pH 7.5; RT 40 min; read-out: OGG1/APEX IC50
pIC50: −log10 of the molar value.
attribute_measured: pIC50

compound="COc1cc(NC(=O)[C@H]2CC[C@@H](N3Cc4c(Br)cc(N)cc4C3=O)CC2)ccc1C [Example 165]" measured_result="6.00 to 7.00"
compound="C=C(C)c1cccc2c1CN([C@H]1CC[C@@H](C(=O)Nc3ccc(C)c(OC)c3)CC1)C2=O [Example 157]" measured_result="< 5.00"
compound="CCc1ccc(NC(=O)[C@H]2CC[C@@H](N3Cc4c(C)cccc4C3=O)CC2)cc1OC [Example 123]" measured_result="6.00 to 7.00"
compound="COc1cc(NC(=O)[C@H]2CC[C@@H](N3Cc4c(Br)cc(NCC5CNC5)cc4C3=O)CC2)ccc1C [Example 177]" measured_result="> 7.00"

Source of measurements: patent US20260317356A1
